FYI, the data here is from PubChem BioAssay (NCI).

Tested on: ACHN renal
Assay name: NCI tumour cell line growth inhibition, 48 h
Readout name: TGI

Quick one: TGI of O=C([O-])c1ccccc1Nc1ccccc1C(=O)[O-].[OH3+].[Zn+2] ?
> 100 µM

Quick one: TGI of COP(=O)(/C=C/C(NC(=O)C(Cl)(Cl)Cl)c1ccccc1)OC (stereo not drawn) ?
> 100 µM

Quick one: TGI of COc1nc2c(c(=O)[nH]1)N=C(c1ccccc1)CC(c1ccccc1)N2 (stereo not drawn) ?
> 100 µM

---

Tested on: U251 CNS
Assay name: NCI tumour cell line growth inhibition, 48 h
Readout name: GI50

Quick one: GI50 of COc1ccc(NC(=O)c2ccc(C(F)(F)F)nc2Nc2ccc(Cl)cc2C)cc1Cl ?
4.23 µM

Quick one: GI50 of O=C(N/N=C/c1ccc([N+](=O)[O-])cc1)c1ccccc1Nc1ccnc(C(F)(F)F)c1 ?
16.6 µM

Quick one: GI50 of COc1cccc(C2SC(C)C(=O)N2NC(=O)C(O)c2ccccc2)c1 (stereo not drawn) ?
> 100 µM

Quick one: GI50 of COc1ccc(-c2c(NC(=O)Nc3ccc(Cl)c(C(F)(F)F)c3)cnn2-c2ccc(S(N)(=O)=O)cc2)cc1 ?
3.3 µM

Quick one: GI50 of CCCCCCCCCCCCCCCCCC1=NC(C)(C)CN1C(C)(C)CO ?
1.42 µM

Quick one: GI50 of C/C(COc1ccc2oc(-c3ccccc3)cc(=O)c2c1)=N\O ?
14.4 µM

Quick one: GI50 of C#Cc1cccc(Nc2nc(C)nc3cc(NC(=O)CCl)ccc23)c1 ?
0.641 µM

Quick one: GI50 of Cc1cc2[nH]c(=O)c3c4ncccc4cn3c2cc1C ?
2.67 µM

Quick one: GI50 of CCOc1ccc(Nc2ccnc3cc(Cl)ccc23)cc1 ?
> 100 µM

Quick one: GI50 of O=C(N/N=C\c1ccc(N(CCCl)CCCl)cc1)c1cccnc1 ?
> 100 µM

Quick one: GI50 of CCC(CO)Nc1nc(NCc2ccccc2)c2n[nH]c(C(C)C)c2n1 (stereo not drawn) ?
11.4 µM

Quick one: GI50 of O=c1oc2ccc(F)cc2c(=O)n1-c1ccc(I)cc1F ?
0.469 µM

Quick one: GI50 of CC[C@H](C)[C@H](NC(=O)c1ncccn1)C(=O)N(C)[C@H](C[C@@H](OC(C)=O)c1nc(C(=O)N[C@@H](Cc2ccccc2)C[C@H](C)C(=O)OC)cs1)C(C)C ?
2.39 µM

---

For each record, write down the corresponding TGI.
System: HT29 colon
Assay name: NCI tumour cell line growth inhibition, 48 h

Quick one: TGI of Cc1ccc(NC(=O)CCc2nnc3s/c(=C\C=C\c4ccccc4)c(=O)n23)cc1 ?
> 100 µM

Quick one: TGI of COc1ccc(-c2c(NC(=O)Nc3ccc(Cl)c(C(F)(F)F)c3)cnn2-c2ccc(S(N)(=O)=O)cc2)cc1 ?
10.9 µM

Quick one: TGI of CCN(CC)CCOCCOCC1(c2ccc(Cl)c(Cl)c2)CCCCC1 ?
7.53 µM

Quick one: TGI of COc1c(C)c(C/C=C(\C)CC/C=C(\C)CC/C=C(\C)CC/C=C(\C)CCC=C(C)C)c(OC)c(OC)c1OC ?
> 100 µM

Quick one: TGI of CCCC[n+]1ccn(-c2nc3ccccc3n2C)c1 ?
> 100 µM

Quick one: TGI of Cc1cc2[nH]c(=O)c3c4ncccc4cn3c2cc1C ?
> 100 µM

Quick one: TGI of O=S(=O)(O)c1ccc(N=Nc2ccc(N=Nc3c(O)ccc4ccc(S(=O)(=O)O)cc34)cc2)cc1 ?
> 100 µM

Quick one: TGI of CCCC(=O)Nc1cc(/C=C/C(=O)N2CC(CCl)c3ccc([N+](=O)[O-])cc32)n(C)c1 (stereo not given) ?
> 100 µM

Quick one: TGI of O=C([O-])c1ccccc1Nc1ccccc1C(=O)[O-].[OH3+].[Zn+2] ?
> 100 µM

Quick one: TGI of O=C1C=CC(=O)c2c(O)c(NCCN3CCOCC3)c(Cl)c(O)c21 ?
4.7 µM
